details: 288.15 K; 101.33 kPa; Liquid; Vibrating tube method
± gives the expanded uncertainty stated by the source.
Quick reference for mass density among some molecules

[
  {
    "Molecule": "CCCn1cc[n+](C)c1C.O=S(=O)([O-])O [2,3-dimethyl-1-propylimidazolium hydrogen sulfate]",
    "mass density": "1239.79 ± 5 kg/m3"
  },
  {
    "Molecule": "CCn1cc[n+](C)c1C.O=S(=O)([O-])O [1-ethyl-2,3-dimethylimidazolium hydrogen sulfate]",
    "mass density": "1261.94 ± 5.1 kg/m3"
  },
  {
    "Molecule": "CCCCCn1cc[n+](C)c1C.O=S(=O)([O-])O [2,3-dimethyl-1-pentylimidazolium hydrogen sulfate]",
    "mass density": "1196.47 ± 4.8 kg/m3"
  },
  {
    "Molecule": "CCC[n+]1ccn(C)c1.O=P([O-])(O)O [1-methyl-3-propylimidazolium dihydrogen phosphate]",
    "mass density": "1202.41 ± 4.8 kg/m3"
  }
]
